Molecular target: human VWF (human)
Sequence (P04275 whole entry): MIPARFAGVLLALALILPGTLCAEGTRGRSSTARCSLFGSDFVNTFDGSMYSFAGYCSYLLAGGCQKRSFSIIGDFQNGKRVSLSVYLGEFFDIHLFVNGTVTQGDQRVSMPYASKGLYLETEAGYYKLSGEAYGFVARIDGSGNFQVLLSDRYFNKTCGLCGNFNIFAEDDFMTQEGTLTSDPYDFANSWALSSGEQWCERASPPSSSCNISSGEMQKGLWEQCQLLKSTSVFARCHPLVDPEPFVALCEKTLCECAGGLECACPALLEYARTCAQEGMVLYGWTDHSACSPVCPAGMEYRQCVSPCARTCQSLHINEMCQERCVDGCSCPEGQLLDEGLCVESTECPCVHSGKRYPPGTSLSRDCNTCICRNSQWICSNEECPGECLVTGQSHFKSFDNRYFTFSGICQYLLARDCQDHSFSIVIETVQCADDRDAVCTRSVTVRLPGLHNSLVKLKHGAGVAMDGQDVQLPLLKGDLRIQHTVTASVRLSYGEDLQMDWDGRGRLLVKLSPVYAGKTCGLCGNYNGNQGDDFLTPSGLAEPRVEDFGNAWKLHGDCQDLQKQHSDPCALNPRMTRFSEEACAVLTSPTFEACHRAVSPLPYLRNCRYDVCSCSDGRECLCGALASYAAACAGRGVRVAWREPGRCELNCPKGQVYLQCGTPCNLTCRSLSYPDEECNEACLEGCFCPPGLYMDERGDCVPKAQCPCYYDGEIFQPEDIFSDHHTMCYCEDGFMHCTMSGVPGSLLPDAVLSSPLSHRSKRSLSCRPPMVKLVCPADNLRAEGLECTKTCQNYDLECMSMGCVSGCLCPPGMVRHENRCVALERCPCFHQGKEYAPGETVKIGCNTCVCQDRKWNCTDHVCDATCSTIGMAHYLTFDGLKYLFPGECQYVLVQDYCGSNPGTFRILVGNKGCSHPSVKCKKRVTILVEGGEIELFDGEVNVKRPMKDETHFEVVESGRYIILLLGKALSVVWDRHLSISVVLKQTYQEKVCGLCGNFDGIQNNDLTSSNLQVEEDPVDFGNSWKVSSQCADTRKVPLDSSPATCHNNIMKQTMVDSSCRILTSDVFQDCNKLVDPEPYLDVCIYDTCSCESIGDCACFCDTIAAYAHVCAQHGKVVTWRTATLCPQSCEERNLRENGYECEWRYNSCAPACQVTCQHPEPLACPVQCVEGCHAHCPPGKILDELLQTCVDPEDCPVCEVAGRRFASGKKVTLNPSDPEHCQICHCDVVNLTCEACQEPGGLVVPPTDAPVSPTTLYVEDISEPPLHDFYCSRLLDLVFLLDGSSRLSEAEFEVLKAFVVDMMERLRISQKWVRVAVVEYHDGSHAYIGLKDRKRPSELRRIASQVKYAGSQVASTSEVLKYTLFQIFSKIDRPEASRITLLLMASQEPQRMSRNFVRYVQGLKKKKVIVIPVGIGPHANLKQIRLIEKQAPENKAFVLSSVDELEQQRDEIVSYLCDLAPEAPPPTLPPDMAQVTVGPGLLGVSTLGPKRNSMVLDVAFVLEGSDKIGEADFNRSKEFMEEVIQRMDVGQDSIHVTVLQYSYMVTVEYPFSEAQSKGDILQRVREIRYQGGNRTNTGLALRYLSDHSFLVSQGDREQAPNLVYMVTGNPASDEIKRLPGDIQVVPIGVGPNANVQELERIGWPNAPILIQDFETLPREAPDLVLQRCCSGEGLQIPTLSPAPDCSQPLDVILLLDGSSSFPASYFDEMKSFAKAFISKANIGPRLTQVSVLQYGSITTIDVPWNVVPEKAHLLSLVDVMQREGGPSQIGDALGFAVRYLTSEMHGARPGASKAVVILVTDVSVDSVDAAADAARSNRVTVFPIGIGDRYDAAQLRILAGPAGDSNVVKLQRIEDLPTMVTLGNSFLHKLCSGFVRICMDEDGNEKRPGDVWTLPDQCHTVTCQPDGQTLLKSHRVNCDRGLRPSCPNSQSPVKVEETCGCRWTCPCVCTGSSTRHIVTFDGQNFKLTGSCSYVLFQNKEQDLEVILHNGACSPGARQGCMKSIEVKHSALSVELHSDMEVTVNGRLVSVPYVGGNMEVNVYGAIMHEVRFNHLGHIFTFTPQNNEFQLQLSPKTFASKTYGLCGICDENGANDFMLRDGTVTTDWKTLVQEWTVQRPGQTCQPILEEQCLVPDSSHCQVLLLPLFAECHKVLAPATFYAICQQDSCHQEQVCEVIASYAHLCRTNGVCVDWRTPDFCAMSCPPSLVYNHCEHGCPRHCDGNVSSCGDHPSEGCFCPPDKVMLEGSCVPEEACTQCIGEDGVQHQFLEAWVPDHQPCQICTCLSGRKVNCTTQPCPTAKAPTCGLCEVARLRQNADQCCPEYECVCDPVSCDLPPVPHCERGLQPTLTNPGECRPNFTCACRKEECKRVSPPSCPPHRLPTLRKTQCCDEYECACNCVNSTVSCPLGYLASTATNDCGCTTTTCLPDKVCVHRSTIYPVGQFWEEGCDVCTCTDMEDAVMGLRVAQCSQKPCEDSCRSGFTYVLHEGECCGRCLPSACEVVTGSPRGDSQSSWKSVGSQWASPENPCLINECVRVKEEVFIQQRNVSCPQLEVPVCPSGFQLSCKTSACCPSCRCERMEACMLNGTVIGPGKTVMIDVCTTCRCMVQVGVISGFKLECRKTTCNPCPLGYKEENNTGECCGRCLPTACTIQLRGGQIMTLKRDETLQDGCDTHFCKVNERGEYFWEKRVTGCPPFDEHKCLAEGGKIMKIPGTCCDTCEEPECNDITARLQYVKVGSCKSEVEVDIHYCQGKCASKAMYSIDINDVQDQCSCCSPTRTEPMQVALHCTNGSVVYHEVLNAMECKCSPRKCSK
Assay: ELISA
recordedEndpoint: EC50 (µg/mL)
Answer with a number only, understood to be in µg/mL.

Query block: Please give measured EC50 of the following entry: 33D03_H2-L1 (antibody, V domains shown) VH: QVQLVQSGAEVKKPGASVKVSCKASGYTFTDYYLNWVRQAPGQRLEWMGIINPYNGGTNYNQRFKGRVTITRDTSASTAYMELSSLRSEDTAVYYCASEGLRTWFTYWGQGTLVTVSS VL: DIVMTQSPDSLAVSLGERATINCKSSQSLSNSGNQKIYLAWYQQKPGQPPKLLIYGASSRESGVPDRFSGSGSGTDFTLTISSLQAEDVAVYYCQNDHSHPFTFGQGTKLEIK
Result block: 0.0373

Query block: Please give measured EC50 of the following entry: 33D03_H4-L3 (antibody, V domains shown) VH: QVQLVQSGAEVKKPGASVKVSCKASGYTFTDYYLNWVRQAPGQRLEWMGIINPYNGGTNYNQRFKGRVTITVDKSSSTAYMELSSLRSEDTAVYYCASEGLRTWFTYWGQGTLVTVSS VL: DIVMTQSPDSLAVSLGERATINCKSSQSLSNSGNQKIYLAWYQQKPGQPPKLLIYGASSRESGVPDRFSGSGSEIDFTLTISSLQAEDVAVYYCQNDHSHPFTFGQGTKLEIK
Result block: 0.0371

Query block: Please give measured EC50 of the following entry: 33D03_H3-L4 (antibody, V domains shown) VH: QVQLVQSGAEVKKPGASVKVSCKASGYTFTDYYLNWVRQAPGQRLEWMGIINPYNGGTNYSQKFQGRVTITVDKSSSTAYMELSSLRSEDTAVYYCASEGLRTWFTYWGQGTLVTVSS VL: DIVMTQSPDSLAVSLGERATISCKSSQSLSNSGNQKIYLAWYQQKPGQPPKLLIYGASSRESGVPDRFSGSGSEIDFTLTISSLQAEDVAVYYCQNDHSHPFTFGQGTKLEIK
Result block: 0.0434

Query block: Please give measured EC50 of the following entry: 25B05_H1-L3 (antibody, V domains shown) VH: QVQLVQSGAEVKKPGASVKVSCKASGYTFTDYFMNWVRQAPGQRLEWMGVINPHNGGTSYSQKFQGRVTITRDTSASTAYMELSSLRSEDTAVYYCARRPLGSDYWGQGTTVTVSS VL: DIQMTQSPSSVSASVGDRVTITCKASQNVGTAVAWYQQKPGKAPKLLIYSASSRYTEVPDRFSGSGSGTDFTLTISSLQPEDFATYYCQQYSSYPLTFGQGTKLEIK
Result block: 0.0335

Query block: Please give measured EC50 of the following entry: 33D03_H3-L2 (antibody, V domains shown) VH: QVQLVQSGAEVKKPGASVKVSCKASGYTFTDYYLNWVRQAPGQRLEWMGIINPYNGGTNYSQKFQGRVTITVDKSSSTAYMELSSLRSEDTAVYYCASEGLRTWFTYWGQGTLVTVSS VL: DIVMTQSPDSLAVSLGERATISCKSSQSLSNSGNQKIYLAWYQQKPGQPPKLLIYGASSRESGVPDRFSGSGSGTDFTLTISSLQAEDVAVYYCQNDHSHPFTFGQGTKLEIK
Result block: 0.0457
